# tgt: T1, Human KLRF1 (human, UniProt Q9NZS2 1-231)
# T1 construct: also called hKLRF1
# T1 sequence: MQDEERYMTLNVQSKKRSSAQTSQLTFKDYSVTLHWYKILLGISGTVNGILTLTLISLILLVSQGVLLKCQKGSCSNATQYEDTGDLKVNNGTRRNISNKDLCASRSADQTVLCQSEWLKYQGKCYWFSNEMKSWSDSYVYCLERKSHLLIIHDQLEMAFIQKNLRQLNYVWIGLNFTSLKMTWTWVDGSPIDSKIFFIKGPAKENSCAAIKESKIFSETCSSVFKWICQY
# test details: flow, Jurkat, 100 nM Ab
property measured: MFI normalized to WT

- KW7.3.7 (antibody, V domains shown) VH: EVQLVESGGGLVQPGGSLRLSCAASGFTFSSYAMSWVRQAPGKGLEWVSATSGSGGSTYYADSAKGRFTISRDNSKNTLYLQMNSLRAEDTAVYYCARGGYLPDAFDYWGRGTLVTVSS VL: DIQMTQSPSSLSASVGDRVTITCWASQSISSYLNWYQQEPGKAPKLLIYAASSLQSGVPSRFSGSGSGTDFTLTISSLQPEDFATYYCQQTYSTPLTFGQGTKVEIK: 1.19
